All values here come from ChEMBL document CHEMBL1240362.

# procedure-details: Cmax in plasma of healthy human at 400 mg, po administered as single dose
measure-name: Cmax (ng/mL)
Kindly provide the numeric value in ng/mL only, without the unit symbol.

// Cmax lookup, key: CC[C@H]1OC(=O)[C@H](C)C(=O)[C@H](C)[C@@H](O[C@@H]2O[C@H](C)C[C@H](N(C)C)[C@H]2O)[C@@]2(C)C[C@@H](C)/C(=N\C(C)=O)[C@H](C)[C@@H](OC/C(=N\OCc3ccc(-n4cccn4)nc3)CO2)[C@]1(C)O
687

====

# procedure-details: Drug level in epithelial lining fluid of healthy human at […], po administered as single dose after 4 hrs
# Format: ADME, organism-based
# Parameters: route oral
# measurement-context: read-out: Drug uptake
measure-name: concentration at 4 h (µg/mL)
# value in µg/mL; strip the unit string

Look up concentration at 4 h: CC[C@H]1OC(=O)[C@H](C)C(=O)[C@H](C)[C@@H](O[C@@H]2O[C@H](C)C[C@H](N(C)C)[C@H]2O)[C@@]2(C)C[C@@H](C)/C(=N\C(C)=O)[C@H](C)[C@@H](OC/C(=N\OCc3ccc(-n4cccn4)nc3)CO2)[C@]1(C)O
13.7

====

# procedure-details: Drug level in alveolar macrophages of healthy human at […], po administered as single dose after 10 hrs
# Format: ADME, organism-based, Macrophage
# Parameters: route oral
# measurement-context: read-out: Drug uptake
measure-name: concentration at 10 h (µg/mL)
Express it in µg/mL; write the number only.

Which measured concentration at 10 h value corresponds to CC[C@H]1OC(=O)[C@H](C)C(=O)[C@H](C)[C@@H](O[C@@H]2O[C@H](C)C[C@H](N(C)C)[C@H]2O)[C@@]2(C)C[C@@H](C)/C(=N\C(C)=O)[C@H](C)[C@@H](OC/C(=N\OCc3ccc(-n4cccn4)nc3)CO2)[C@]1(C)O ?
108

====

# procedure-details: AUC (0 to 24 hrs) in plasma of healthy human at 400 mg, po administered as single dose by linear trapezoidal method
measure-name: AUC(0-t) at 24 h (ng·h/mL)
Numbers only; they are read as ng·h/mL.

Which AUC(0-t) at 24 h value is on record for CC[C@H]1OC(=O)[C@H](C)C(=O)[C@H](C)[C@@H](O[C@@H]2O[C@H](C)C[C@H](N(C)C)[C@H]2O)[C@@]2(C)C[C@@H](C)/C(=N\C(C)=O)[C@H](C)[C@@H](OC/C(=N\OCc3ccc(-n4cccn4)nc3)CO2)[C@]1(C)O ?
10500

====

# procedure-details: Plasma concentration in healthy human at […], po after 2 hrs
# Type: ADME, organism-based
# Parameters: route oral
measure-name: concentration at 2 h (ng/mL)
Kindly answer with a numeric value in ng/mL, unit omitted.

Param item = CC[C@H]1OC(=O)[C@H](C)C(=O)[C@H](C)[C@@H](O[C@@H]2O[C@H](C)C[C@H](N(C)C)[C@H]2O)[C@@]2(C)C[C@@H](C)/C(=N\C(C)=O)[C@H](C)[C@@H](OC/C(=N\OCc3ccc(-n4cccn4)nc3)CO2)[C@]1(C)O ; retrieve measured concentration at 2 h.
646

====

# procedure-details: Drug level in alveolar macrophages of healthy human at […], po administered as single dose after 8 hrs
# Assay type: ADME, organism-based, Macrophage
# Parameters: route oral
# measurement-context: read-out: Drug uptake
measure-name: concentration at 8 h (µg/mL)
Numeric only. Scale: µg/mL

Give its concentration at 8 h value. Item: CC[C@H]1OC(=O)[C@H](C)C(=O)[C@H](C)[C@@H](O[C@@H]2O[C@H](C)C[C@H](N(C)C)[C@H]2O)[C@@]2(C)C[C@@H](C)/C(=N\C(C)=O)[C@H](C)[C@@H](OC/C(=N\OCc3ccc(-n4cccn4)nc3)CO2)[C@]1(C)O
125

====

# procedure-details: Terminal-phase half-life in plasma of healthy human at 400 mg, po administered as single dose
# measurement-context: read-out: beta t1/2 (converted)
measure-name: half-life (h)
Give a bare numeral; the unit h is implied.

Item CC[C@H]1OC(=O)[C@H](C)C(=O)[C@H](C)[C@@H](O[C@@H]2O[C@H](C)C[C@H](N(C)C)[C@H]2O)[C@@]2(C)C[C@@H](C)/C(=N\C(C)=O)[C@H](C)[C@@H](OC/C(=N\OCc3ccc(-n4cccn4)nc3)CO2)[C@]1(C)O [MODITHROMYCIN] has what recorded half-life?
17.5

====

# procedure-details: Plasma concentration in healthy human at […], po after 8 hrs
# Format: ADME, organism-based
# Set-up: route oral
measure-name: concentration at 8 h (ng/mL)
State the answer as a number, implicitly in ng/mL.

I am curious: what concentration at 8 h value has been reported for CC[C@H]1OC(=O)[C@H](C)C(=O)[C@H](C)[C@@H](O[C@@H]2O[C@H](C)C[C@H](N(C)C)[C@H]2O)[C@@]2(C)C[C@@H](C)/C(=N\C(C)=O)[C@H](C)[C@@H](OC/C(=N\OCc3ccc(-n4cccn4)nc3)CO2)[C@]1(C)O [MODITHROMYCIN] ?
441

====

# procedure-details: Tmax in alveolar macrophages of healthy human at 400 mg, po administered as single dose
measure-name: Tmax (h)
Respond numerically; units are h and should not be typed.

Value lookup for Tmax; key = CC[C@H]1OC(=O)[C@H](C)C(=O)[C@H](C)[C@@H](O[C@@H]2O[C@H](C)C[C@H](N(C)C)[C@H]2O)[C@@]2(C)C[C@@H](C)/C(=N\C(C)=O)[C@H](C)[C@@H](OC/C(=N\OCc3ccc(-n4cccn4)nc3)CO2)[C@]1(C)O [MODITHROMYCIN]
12

====

# procedure-details: Ratio of drug level in epithelial lining fluid to plasma in healthy human at […] administered as single dose after 2 hrs
# Format: ADME, organism-based
# Parameters: route oral
# measurement-context: po
measure-name: Kp at 2 h
Field format: numeric only.

I am curious: what Kp at 2 h value has been reported for CC[C@H]1OC(=O)[C@H](C)C(=O)[C@H](C)[C@@H](O[C@@H]2O[C@H](C)C[C@H](N(C)C)[C@H]2O)[C@@]2(C)C[C@@H](C)/C(=N\C(C)=O)[C@H](C)[C@@H](OC/C(=N\OCc3ccc(-n4cccn4)nc3)CO2)[C@]1(C)O [MODITHROMYCIN] ?
26.3

====

# procedure-details: Ratio of drug level in epithelial lining fluid to plasma in healthy human at […], po administered as single dose after 4 hrs
# Format: ADME, organism-based
# Parameters: route oral
measure-name: Kp at 4 h
Give the value as a plain number.

Name the reported Kp at 4 h value associated with the compound CC[C@H]1OC(=O)[C@H](C)C(=O)[C@H](C)[C@@H](O[C@@H]2O[C@H](C)C[C@H](N(C)C)[C@H]2O)[C@@]2(C)C[C@@H](C)/C(=N\C(C)=O)[C@H](C)[C@@H](OC/C(=N\OCc3ccc(-n4cccn4)nc3)CO2)[C@]1(C)O
24.8

====

# procedure-details: AUC (0 to 24 hrs) in alveolar macrophages of healthy human at 400 mg, po administered as single dose by linear trapezoidal method
measure-name: AUC(0-t) at 24 h (µg·h/mL)
Lab book: enter the figure in µg·h/mL, no units written.

I would be grateful if you could share the reported AUC(0-t) at 24 h for CC[C@H]1OC(=O)[C@H](C)C(=O)[C@H](C)[C@@H](O[C@@H]2O[C@H](C)C[C@H](N(C)C)[C@H]2O)[C@@]2(C)C[C@@H](C)/C(=N\C(C)=O)[C@H](C)[C@@H](OC/C(=N\OCc3ccc(-n4cccn4)nc3)CO2)[C@]1(C)O [MODITHROMYCIN] .
2560

====

# procedure-details: Ratio of drug level in alveolar macrophages to plasma in healthy human at 400 mg, po administered as single dose after 10 hrs
measure-name: Kp at 10 h

# query: Kp at 10 h of entry CC[C@H]1OC(=O)[C@H](C)C(=O)[C@H](C)[C@@H](O[C@@H]2O[C@H](C)C[C@H](N(C)C)[C@H]2O)[C@@]2(C)C[C@@H](C)/C(=N\C(C)=O)[C@H](C)[C@@H](OC/C(=N\OCc3ccc(-n4cccn4)nc3)CO2)[C@]1(C)O [MODITHROMYCIN]
260

====

# procedure-details: Drug level in epithelial lining fluid of healthy human at […], po administered as single dose after 10 hrs
# Type: ADME, organism-based
# Set-up: route oral
# measurement-context: read-out: Drug uptake
measure-name: concentration at 10 h (ng/mL)
Only the number, expressed in ng/mL, is required.

Any idea what concentration at 10 h was measured for CC[C@H]1OC(=O)[C@H](C)C(=O)[C@H](C)[C@@H](O[C@@H]2O[C@H](C)C[C@H](N(C)C)[C@H]2O)[C@@]2(C)C[C@@H](C)/C(=N\C(C)=O)[C@H](C)[C@@H](OC/C(=N\OCc3ccc(-n4cccn4)nc3)CO2)[C@]1(C)O [MODITHROMYCIN] ?
10000
